Data origin, for the record: the kinase profiling compilation of Christmann-Franck et al. (2016)

Hi there, I'd appreciate the recorded kinase still bound, per cent of control for every entry that follows.
Target: UniProt:P42679
Sequence (P42679 whole entry, looked up): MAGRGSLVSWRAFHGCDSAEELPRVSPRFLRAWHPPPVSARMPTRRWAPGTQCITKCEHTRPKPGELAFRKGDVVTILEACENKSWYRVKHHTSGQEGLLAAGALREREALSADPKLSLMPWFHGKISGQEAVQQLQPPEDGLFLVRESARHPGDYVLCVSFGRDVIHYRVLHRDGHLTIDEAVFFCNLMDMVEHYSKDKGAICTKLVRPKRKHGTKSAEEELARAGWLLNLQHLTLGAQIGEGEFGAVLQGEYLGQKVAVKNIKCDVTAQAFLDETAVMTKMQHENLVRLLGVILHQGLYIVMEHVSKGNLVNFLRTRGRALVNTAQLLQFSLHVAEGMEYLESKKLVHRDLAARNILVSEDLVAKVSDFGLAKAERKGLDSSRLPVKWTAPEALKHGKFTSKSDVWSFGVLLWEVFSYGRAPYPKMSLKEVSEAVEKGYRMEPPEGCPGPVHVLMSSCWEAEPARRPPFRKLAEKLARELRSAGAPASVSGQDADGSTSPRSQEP
Assay: KINOMEscan competition binding
Conditions: compound 10.0 µM
Note: unit % is implicit; provide only the numeric part.

// query Can you look up the measured kinase still bound, per cent of control of "C=CC(=O)Nc1cc(NC(=O)c2ccc(C)c(NC(=O)c3ccno3)c2)cc(C(F)(F)F)c1" for me?
// result 100

// query Can you look up the measured kinase still bound, per cent of control of "C=CC(=O)Nc1cccc(Nc2nc(N[C@H]3CC[C@H](N(C)C)CC3)nc3c2ncn3C(C)C)c1" for me?
// result 40

// query Can you look up the measured kinase still bound, per cent of control of "O=C(NOC[C@H](O)CO)c1ccc(F)c(F)c1Nc1ccc(I)cc1F" for me?
// result 100

// query Can you look up the measured kinase still bound, per cent of control of "O=C(NC1CC1)c1cccc(-c2ccc3c(NC(=O)C4CC4)n[nH]c3c2)c1" for me?
// result 68

// query Can you look up the measured kinase still bound, per cent of control of "CCOc1cc2ncc(C#N)c(Nc3ccc(OCc4ccccn4)c(Cl)c3)c2cc1NC(=O)/C=C/CN(C)C" for me?
// result 71

---

Target: JAK1 JH1 catalytic (human)
Assay: KINOMEscan competition binding
Conditions: compound 10.0 µM
METRIC: kinase still bound, per cent of control (%)
Note: unit % is implicit; provide only the numeric part.

// query Can you look up the measured kinase still bound, per cent of control of "Cc1ccc2nc(NCCN)c3ncc(C)n3c2c1" for me?
// result 100

// query Can you look up the measured kinase still bound, per cent of control of "COc1cc(C(=O)NC2CCN(C)CC2)ccc1Nc1ncc2c(n1)N(C1CCCC1)CCC(=O)N2C(C)C" for me?
// result 100

// query Can you look up the measured kinase still bound, per cent of control of "CCCS(=O)(=O)Nc1ccc(F)c(C(=O)c2c[nH]c3ncc(-c4ccc(Cl)cc4)cc23)c1F" for me?
// result 28

// query Can you look up the measured kinase still bound, per cent of control of "COc1cc(N2CCN(C)CC2)ccc1Nc1nc(N)c(C(=O)c2c(Cl)cccc2Cl)s1" for me?
// result 100

// query Can you look up the measured kinase still bound, per cent of control of "CN(C)C/C=C/C(=O)Nc1cccc(Nc2ncc3c(n2)N(C)c2ccccc2C(=O)N3C)c1" for me?
// result 2.8

// query Can you look up the measured kinase still bound, per cent of control of "O=C(NOC[C@H](O)CO)c1ccc(F)c(F)c1Nc1ccc(I)cc1F" for me?
// result 78

---

Target: ERBB4 (human) (UniProt Q15303)
Sequence (Q15303 whole entry, looked up): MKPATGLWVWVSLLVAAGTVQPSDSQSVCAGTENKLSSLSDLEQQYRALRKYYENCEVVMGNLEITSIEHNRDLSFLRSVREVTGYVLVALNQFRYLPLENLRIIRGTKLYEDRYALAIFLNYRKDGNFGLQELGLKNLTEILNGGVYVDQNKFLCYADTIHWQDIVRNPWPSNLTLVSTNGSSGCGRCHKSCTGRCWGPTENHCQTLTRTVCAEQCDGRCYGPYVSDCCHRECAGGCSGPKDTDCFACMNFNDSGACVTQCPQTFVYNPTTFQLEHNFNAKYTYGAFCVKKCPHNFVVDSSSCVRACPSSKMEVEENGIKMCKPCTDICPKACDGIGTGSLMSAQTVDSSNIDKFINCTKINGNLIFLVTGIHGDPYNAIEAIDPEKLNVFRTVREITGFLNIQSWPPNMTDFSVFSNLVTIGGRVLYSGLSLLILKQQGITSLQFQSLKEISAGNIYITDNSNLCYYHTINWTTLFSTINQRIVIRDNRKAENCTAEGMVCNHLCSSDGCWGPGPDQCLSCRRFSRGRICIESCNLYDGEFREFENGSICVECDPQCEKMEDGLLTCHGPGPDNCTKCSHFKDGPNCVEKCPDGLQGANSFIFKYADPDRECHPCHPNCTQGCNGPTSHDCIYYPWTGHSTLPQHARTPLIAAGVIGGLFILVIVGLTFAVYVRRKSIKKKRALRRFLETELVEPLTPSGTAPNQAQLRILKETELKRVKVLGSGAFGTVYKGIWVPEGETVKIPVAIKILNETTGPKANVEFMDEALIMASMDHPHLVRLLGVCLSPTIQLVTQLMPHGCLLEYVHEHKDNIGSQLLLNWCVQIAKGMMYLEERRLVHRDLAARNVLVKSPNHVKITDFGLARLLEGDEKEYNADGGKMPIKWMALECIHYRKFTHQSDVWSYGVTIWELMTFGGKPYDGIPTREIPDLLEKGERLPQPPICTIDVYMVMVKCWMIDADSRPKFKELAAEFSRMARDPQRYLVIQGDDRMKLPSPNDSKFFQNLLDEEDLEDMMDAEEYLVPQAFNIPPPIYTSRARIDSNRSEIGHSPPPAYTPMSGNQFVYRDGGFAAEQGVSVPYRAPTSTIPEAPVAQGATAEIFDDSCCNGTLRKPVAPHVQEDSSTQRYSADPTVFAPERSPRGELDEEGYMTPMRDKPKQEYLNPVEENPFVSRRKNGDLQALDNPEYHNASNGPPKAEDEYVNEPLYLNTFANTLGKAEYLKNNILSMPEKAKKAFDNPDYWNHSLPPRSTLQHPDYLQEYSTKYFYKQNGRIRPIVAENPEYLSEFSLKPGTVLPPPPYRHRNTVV
Assay: KINOMEscan competition binding
Conditions: compound 10.0 µM
METRIC: kinase still bound, per cent of control (%)
Note: unit % is implicit; provide only the numeric part.

// query Can you look up the measured kinase still bound, per cent of control of "O=C(NC1CC1)c1cccc(-c2ccc3c(NC(=O)C4CC4)n[nH]c3c2)c1" for me?
// result 95

// query Can you look up the measured kinase still bound, per cent of control of "CC[C@@H]1C(=O)N(C)c2cnc(Nc3ccc(C(=O)NC4CCN(C)CC4)cc3OC)nc2N1C1CCCC1" for me?
// result 100

// query Can you look up the measured kinase still bound, per cent of control of "C=CC(=O)Nc1cc(NC(=O)c2ccc(C)c(NC(=O)c3ccno3)c2)cc(C(F)(F)F)c1" for me?
// result 100

// query Can you look up the measured kinase still bound, per cent of control of "Cn1c(=O)n(-c2ccc(C(C)(C)C#N)cc2)c2c3cc(-c4cnc5ccccc5c4)ccc3ncc21" for me?
// result 100

// query Can you look up the measured kinase still bound, per cent of control of "Cc1ccc(C(=O)Nc2cccc(C(F)(F)F)c2)cc1Nc1cncc(C(N)=O)c1" for me?
// result 100

// query Can you look up the measured kinase still bound, per cent of control of "COc1cc(N2CCN(C)CC2)ccc1Nc1nc(N)c(C(=O)c2c(Cl)cccc2Cl)s1" for me?
// result 100

// query Can you look up the measured kinase still bound, per cent of control of "Cc1ccc(NC(=O)c2cccc(C(C)(C)C#N)c2)cc1Nc1ccc2ncn(C)c(=O)c2c1" for me?
// result 34

// query Can you look up the measured kinase still bound, per cent of control of "C[C@@H](Oc1cc(-n2cnc3ccc(CN4CCN(C)CC4)cc32)sc1C(N)=O)c1ccccc1C(F)(F)F" for me?
// result 88

// query Can you look up the measured kinase still bound, per cent of control of "C=CC(=O)Nc1cccc(Nc2nc(N[C@H]3CC[C@H](N(C)C)CC3)nc3c2ncn3C(C)C)c1" for me?
// result 76

// query Can you look up the measured kinase still bound, per cent of control of "CCOc1cc2ncc(C#N)c(Nc3ccc(OCc4ccccn4)c(Cl)c3)c2cc1NC(=O)/C=C/CN(C)C" for me?
// result 0

// query Can you look up the measured kinase still bound, per cent of control of "Cc1cc([C@@H](C)Nc2ccccc2C(=O)O)c2nc(N3CCOCC3)cc(=O)n2c1" for me?
// result 100

// query Can you look up the measured kinase still bound, per cent of control of "O=C(O)c1ccc(Nc2ncc3c(n2)-c2ccc(Cl)cc2C(c2c(F)cccc2F)=NC3)cc1" for me?
// result 52

// query Can you look up the measured kinase still bound, per cent of control of "OCCCNc1cc(-c2ccnc(Nc3cccc(Cl)c3)n2)ccn1" for me?
// result 100

// query Can you look up the measured kinase still bound, per cent of control of "Nc1ccc(-c2ccc3ncc4ccc(=O)n(-c5cccc(C(F)(F)F)c5)c4c3c2)cn1" for me?
// result 100

// query Can you look up the measured kinase still bound, per cent of control of "COc1cc(C(=O)NC2CCN(C)CC2)ccc1Nc1ncc2c(n1)N(C1CCCC1)CCC(=O)N2C(C)C" for me?
// result 100

// query Can you look up the measured kinase still bound, per cent of control of "O=C(NOC[C@H](O)CO)c1ccc(F)c(F)c1Nc1ccc(I)cc1F" for me?
// result 100

// query Can you look up the measured kinase still bound, per cent of control of "Cc1ccc2nc(NCCN)c3ncc(C)n3c2c1" for me?
// result 100

// query Can you look up the measured kinase still bound, per cent of control of COc1cc(C(=O)NC2CCN(C)CC2)ccc1Nc1ncc2c(n1)N(C1CCCC1)C(C)CC(=O)N2C (centres undefined) for me?
// result 100

// query Can you look up the measured kinase still bound, per cent of control of "N#Cc1c(NC(=O)c2cccc3ccccc23)sc2c1CCCC2" for me?
// result 100

---

Molecular target: FGR (human) (UniProt P09769)
Sequence (P09769 whole entry, looked up): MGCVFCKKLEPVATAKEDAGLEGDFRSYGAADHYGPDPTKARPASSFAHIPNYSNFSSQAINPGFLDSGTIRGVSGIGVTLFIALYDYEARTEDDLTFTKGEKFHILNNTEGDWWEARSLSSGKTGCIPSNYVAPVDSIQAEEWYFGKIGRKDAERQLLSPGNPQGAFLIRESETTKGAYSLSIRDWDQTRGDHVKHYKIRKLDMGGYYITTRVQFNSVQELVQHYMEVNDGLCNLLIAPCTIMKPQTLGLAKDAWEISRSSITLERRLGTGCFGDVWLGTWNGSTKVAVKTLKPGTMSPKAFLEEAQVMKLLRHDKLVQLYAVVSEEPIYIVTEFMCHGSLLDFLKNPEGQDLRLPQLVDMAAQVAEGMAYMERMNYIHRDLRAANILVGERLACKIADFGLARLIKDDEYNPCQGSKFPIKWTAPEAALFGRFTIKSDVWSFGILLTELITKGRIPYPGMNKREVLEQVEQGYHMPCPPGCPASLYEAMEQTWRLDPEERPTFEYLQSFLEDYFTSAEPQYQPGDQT
Assay: KINOMEscan competition binding
Conditions: compound 10.0 µM
METRIC: kinase still bound, per cent of control (%)
Note: unit % is implicit; provide only the numeric part.

// query Can you look up the measured kinase still bound, per cent of control of "CCN1CCN(Cc2ccc(Nc3ncc4c(n3)N(C)c3ccccc3C(=O)N4C)cc2C(F)(F)F)CC1" for me?
// result 26

// query Can you look up the measured kinase still bound, per cent of control of "Nc1ccc(-c2ccc3ncc4ccc(=O)n(-c5cccc(C(F)(F)F)c5)c4c3c2)cn1" for me?
// result 100

// query Can you look up the measured kinase still bound, per cent of control of "O=C1Nc2ccc(I)cc2/C1=C/c1cc(Br)c(O)c(Br)c1" for me?
// result 86

// query Can you look up the measured kinase still bound, per cent of control of "C[C@@H](Oc1cc(-n2cnc3ccc(CN4CCN(C)CC4)cc32)sc1C(N)=O)c1ccccc1C(F)(F)F" for me?
// result 82

// query Can you look up the measured kinase still bound, per cent of control of "Cc1cc([C@@H](C)Nc2ccccc2C(=O)O)c2nc(N3CCOCC3)cc(=O)n2c1" for me?
// result 95

---

Molecular target: MAST1 (human)
Test: KINOMEscan competition binding
Conditions: compound 10.0 µM
Hi there, I'd appreciate the recorded kinase still bound, per cent of control for every entry that follows.
Note: unit % is implicit; provide only the numeric part.

// query Request: kinase still bound, per cent of control, test system MAST1 (human), entry "Cc1ccc(NC(=O)c2cccc(C(C)(C)C#N)c2)cc1Nc1ccc2ncn(C)c(=O)c2c1"
// result 100

// query Request: kinase still bound, per cent of control, test system MAST1 (human), entry "CN(C)C/C=C/C(=O)Nc1cccc(Nc2ncc3c(n2)N(C)c2ccccc2C(=O)N3C)c1"
// result 100

// query Request: kinase still bound, per cent of control, test system MAST1 (human), entry "O=C(O)c1ccc(Nc2ncc3c(n2)-c2ccc(Cl)cc2C(c2c(F)cccc2F)=NC3)cc1"
// result 100

// query Request: kinase still bound, per cent of control, test system MAST1 (human), entry "Cn1c(=O)n(-c2ccc(C(C)(C)C#N)cc2)c2c3cc(-c4cnc5ccccc5c4)ccc3ncc21"
// result 100

// query Request: kinase still bound, per cent of control, test system MAST1 (human), entry "OCCCNc1cc(-c2ccnc(Nc3cccc(Cl)c3)n2)ccn1"
// result 100

// query Request: kinase still bound, per cent of control, test system MAST1 (human), entry "O=C(NC1CC1)c1cccc(-c2ccc3c(NC(=O)C4CC4)n[nH]c3c2)c1"
// result 94

// query Request: kinase still bound, per cent of control, test system MAST1 (human), entry "C=CC(=O)Nc1cccc(Nc2nc(N[C@H]3CC[C@H](N(C)C)CC3)nc3c2ncn3C(C)C)c1"
// result 83

// query Request: kinase still bound, per cent of control, test system MAST1 (human), entry "C[C@@H](Oc1cc(-n2cnc3ccc(CN4CCN(C)CC4)cc32)sc1C(N)=O)c1ccccc1C(F)(F)F"
// result 3.1

// query Request: kinase still bound, per cent of control, test system MAST1 (human), entry "Nc1ccc(-c2ccc3ncc4ccc(=O)n(-c5cccc(C(F)(F)F)c5)c4c3c2)cn1"
// result 100
